All figures here come from patent US20250276964A1.

- measurement.target: WIZ (Homo sapiens, UniProt O95785+Q96SW2)
- Construct: expressed in transfected cells
- Sequence (O95785 whole entry): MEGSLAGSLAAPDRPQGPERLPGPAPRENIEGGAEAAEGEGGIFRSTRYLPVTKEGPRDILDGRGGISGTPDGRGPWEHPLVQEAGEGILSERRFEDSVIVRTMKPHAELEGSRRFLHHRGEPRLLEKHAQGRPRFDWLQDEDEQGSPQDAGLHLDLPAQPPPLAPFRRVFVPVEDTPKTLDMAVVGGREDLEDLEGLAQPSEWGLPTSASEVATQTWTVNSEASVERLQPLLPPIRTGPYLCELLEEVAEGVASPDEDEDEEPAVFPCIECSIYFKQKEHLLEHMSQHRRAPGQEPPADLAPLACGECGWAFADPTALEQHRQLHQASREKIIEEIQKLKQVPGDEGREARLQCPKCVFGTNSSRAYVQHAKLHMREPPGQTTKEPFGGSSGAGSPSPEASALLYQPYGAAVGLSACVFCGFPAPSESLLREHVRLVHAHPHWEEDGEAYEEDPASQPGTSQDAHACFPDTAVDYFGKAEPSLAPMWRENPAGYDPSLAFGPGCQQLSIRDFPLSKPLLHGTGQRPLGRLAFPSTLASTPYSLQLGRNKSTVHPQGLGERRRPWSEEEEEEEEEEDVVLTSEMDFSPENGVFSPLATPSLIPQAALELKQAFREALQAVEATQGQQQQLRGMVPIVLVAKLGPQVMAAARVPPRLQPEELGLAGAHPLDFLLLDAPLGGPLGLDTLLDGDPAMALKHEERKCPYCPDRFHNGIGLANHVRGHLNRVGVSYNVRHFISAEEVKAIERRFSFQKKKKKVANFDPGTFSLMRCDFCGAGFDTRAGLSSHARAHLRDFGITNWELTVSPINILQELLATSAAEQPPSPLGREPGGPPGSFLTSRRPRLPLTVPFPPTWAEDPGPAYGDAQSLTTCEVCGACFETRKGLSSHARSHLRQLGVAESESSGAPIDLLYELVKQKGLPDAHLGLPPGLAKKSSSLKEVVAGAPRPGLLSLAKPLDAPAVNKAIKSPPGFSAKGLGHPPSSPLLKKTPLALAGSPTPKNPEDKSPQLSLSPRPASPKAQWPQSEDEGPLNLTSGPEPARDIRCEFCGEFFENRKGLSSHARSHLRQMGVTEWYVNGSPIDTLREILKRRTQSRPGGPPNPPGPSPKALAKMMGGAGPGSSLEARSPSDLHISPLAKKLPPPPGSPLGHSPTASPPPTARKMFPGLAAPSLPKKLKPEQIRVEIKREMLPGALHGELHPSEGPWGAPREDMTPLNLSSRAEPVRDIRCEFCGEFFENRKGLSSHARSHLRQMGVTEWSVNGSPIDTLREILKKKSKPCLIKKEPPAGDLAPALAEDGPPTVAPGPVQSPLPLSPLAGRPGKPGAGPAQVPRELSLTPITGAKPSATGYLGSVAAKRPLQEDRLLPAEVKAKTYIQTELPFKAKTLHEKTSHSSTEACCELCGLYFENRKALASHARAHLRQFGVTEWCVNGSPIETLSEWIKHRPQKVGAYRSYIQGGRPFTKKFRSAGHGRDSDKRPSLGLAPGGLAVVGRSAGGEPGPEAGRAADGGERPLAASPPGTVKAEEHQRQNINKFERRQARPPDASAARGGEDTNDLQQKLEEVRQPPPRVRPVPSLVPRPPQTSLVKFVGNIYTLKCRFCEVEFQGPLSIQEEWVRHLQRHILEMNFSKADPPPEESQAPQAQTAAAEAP
- Sequence (Q96SW2 whole entry): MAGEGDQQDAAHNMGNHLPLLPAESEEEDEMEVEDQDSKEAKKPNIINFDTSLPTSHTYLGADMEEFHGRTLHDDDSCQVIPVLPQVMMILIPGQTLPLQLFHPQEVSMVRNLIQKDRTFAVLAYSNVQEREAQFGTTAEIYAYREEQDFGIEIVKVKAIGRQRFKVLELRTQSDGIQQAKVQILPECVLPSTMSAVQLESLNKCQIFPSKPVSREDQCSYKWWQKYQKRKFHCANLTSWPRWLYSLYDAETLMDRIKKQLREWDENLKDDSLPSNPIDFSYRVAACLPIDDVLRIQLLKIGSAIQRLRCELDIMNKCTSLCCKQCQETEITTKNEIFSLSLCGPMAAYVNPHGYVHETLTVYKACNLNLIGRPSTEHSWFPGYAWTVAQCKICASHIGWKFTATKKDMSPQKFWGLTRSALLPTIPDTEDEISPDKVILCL
- Sequence (Q16531 whole entry partner): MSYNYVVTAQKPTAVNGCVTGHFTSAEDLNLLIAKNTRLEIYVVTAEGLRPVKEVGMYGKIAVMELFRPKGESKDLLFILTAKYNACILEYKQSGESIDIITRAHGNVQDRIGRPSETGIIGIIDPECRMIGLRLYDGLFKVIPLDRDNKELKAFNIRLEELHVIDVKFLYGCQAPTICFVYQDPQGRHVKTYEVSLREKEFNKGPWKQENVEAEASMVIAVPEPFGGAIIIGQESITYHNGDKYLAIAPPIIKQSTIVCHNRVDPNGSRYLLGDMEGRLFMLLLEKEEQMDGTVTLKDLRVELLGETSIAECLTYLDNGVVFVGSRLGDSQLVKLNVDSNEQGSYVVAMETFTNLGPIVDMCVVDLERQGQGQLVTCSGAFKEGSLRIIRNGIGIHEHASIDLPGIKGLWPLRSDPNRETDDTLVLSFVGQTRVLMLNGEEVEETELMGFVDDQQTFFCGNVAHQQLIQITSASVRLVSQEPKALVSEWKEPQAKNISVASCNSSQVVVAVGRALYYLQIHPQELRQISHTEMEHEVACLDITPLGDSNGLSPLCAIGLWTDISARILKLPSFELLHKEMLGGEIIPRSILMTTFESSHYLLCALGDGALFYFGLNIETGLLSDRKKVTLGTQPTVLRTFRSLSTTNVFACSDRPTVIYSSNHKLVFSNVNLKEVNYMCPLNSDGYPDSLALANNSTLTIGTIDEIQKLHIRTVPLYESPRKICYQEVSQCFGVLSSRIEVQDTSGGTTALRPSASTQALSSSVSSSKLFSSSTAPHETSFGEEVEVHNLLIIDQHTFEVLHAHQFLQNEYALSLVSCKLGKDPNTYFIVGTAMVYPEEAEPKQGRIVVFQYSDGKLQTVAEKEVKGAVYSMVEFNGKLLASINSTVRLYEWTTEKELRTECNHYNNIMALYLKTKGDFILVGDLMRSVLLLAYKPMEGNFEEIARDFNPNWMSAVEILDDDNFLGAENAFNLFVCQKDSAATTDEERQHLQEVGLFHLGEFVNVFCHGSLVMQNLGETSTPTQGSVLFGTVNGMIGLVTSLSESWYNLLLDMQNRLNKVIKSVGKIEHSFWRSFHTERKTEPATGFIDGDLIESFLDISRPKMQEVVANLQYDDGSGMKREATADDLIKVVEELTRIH
- assay.text: Quantification of WIZ protein levels in HiBit tag fusion protein assay (WIZ HiBit assay in 293T cells)
- Type: cell-based
- experimental.conditions: WIZ HiBit assay in 293T cells; 10-point, 5-fold dilution, highest concentration 25 μM, about 18 hours; read-out: WIZ AC50
Where a name gives a salt, the structure may show the parent alone.
endpoint.label: DC50 (nM)
Respond numerically; units are nM and should not be typed.

The following compounds have reported results that may help.
# compound, scale.unit, reading
measured = [
    ("O=C1CCN(c2noc3ccc(CN4C[C@H]5CC[C@@H](C4)N5)cc23)C(=O)N1", "nM", 34),
    ("CC(C)CN1CCC(Cc2ccc3onc(N4CCC(=O)NC4=O)c3c2)CC1", "nM", 14),
    ("CN1CCN(Cc2ccc3onc(N4CCC(=O)NC4=O)c3c2)CC1(C)C", "nM", 4),
    ("CC(C)CN1CCCC(Cc2ccc3onc(N4CCC(=O)NC4=O)c3c2)C1 (stereo not drawn)", "nM", 197),
    ("CN1[C@@H]2CC[C@H]1CN(Cc1ccc3onc(N4CCC(=O)NC4=O)c3c1)C2", "nM", 13),
]

Given the compound C[C@@H]1CN(C)C[C@H](C)N1Cc1ccc2onc(N3CCC(=O)NC3=O)c2c1 , what is its reported DC50?
577

Given the compound O=C1CCN(c2noc3ccc(CC4CCNCC4)cc23)C(=O)N1 [Example 1b, hydrochloride] , what is its reported DC50?
210

Given the compound CC(C)S(=O)(=O)N1CCN(Cc2ccc3onc(N4CCC(=O)NC4=O)c3c2)[C@H](C)C1 , what is its reported DC50?
110

Given the compound C[C@@H]1CN(C(=O)NC2CCCC2)CCN1Cc1ccc2onc(N3CCC(=O)NC3=O)c2c1 , what is its reported DC50?
115
